Cited source for all entries: patent US20160289186A1

Target Entity: Human CaV2.2 channels (Homo sapiens, UniProt Q00975)
Construct: expressed in transfected cells; host or cells: HEK293
Sequence (Q00975 whole entry): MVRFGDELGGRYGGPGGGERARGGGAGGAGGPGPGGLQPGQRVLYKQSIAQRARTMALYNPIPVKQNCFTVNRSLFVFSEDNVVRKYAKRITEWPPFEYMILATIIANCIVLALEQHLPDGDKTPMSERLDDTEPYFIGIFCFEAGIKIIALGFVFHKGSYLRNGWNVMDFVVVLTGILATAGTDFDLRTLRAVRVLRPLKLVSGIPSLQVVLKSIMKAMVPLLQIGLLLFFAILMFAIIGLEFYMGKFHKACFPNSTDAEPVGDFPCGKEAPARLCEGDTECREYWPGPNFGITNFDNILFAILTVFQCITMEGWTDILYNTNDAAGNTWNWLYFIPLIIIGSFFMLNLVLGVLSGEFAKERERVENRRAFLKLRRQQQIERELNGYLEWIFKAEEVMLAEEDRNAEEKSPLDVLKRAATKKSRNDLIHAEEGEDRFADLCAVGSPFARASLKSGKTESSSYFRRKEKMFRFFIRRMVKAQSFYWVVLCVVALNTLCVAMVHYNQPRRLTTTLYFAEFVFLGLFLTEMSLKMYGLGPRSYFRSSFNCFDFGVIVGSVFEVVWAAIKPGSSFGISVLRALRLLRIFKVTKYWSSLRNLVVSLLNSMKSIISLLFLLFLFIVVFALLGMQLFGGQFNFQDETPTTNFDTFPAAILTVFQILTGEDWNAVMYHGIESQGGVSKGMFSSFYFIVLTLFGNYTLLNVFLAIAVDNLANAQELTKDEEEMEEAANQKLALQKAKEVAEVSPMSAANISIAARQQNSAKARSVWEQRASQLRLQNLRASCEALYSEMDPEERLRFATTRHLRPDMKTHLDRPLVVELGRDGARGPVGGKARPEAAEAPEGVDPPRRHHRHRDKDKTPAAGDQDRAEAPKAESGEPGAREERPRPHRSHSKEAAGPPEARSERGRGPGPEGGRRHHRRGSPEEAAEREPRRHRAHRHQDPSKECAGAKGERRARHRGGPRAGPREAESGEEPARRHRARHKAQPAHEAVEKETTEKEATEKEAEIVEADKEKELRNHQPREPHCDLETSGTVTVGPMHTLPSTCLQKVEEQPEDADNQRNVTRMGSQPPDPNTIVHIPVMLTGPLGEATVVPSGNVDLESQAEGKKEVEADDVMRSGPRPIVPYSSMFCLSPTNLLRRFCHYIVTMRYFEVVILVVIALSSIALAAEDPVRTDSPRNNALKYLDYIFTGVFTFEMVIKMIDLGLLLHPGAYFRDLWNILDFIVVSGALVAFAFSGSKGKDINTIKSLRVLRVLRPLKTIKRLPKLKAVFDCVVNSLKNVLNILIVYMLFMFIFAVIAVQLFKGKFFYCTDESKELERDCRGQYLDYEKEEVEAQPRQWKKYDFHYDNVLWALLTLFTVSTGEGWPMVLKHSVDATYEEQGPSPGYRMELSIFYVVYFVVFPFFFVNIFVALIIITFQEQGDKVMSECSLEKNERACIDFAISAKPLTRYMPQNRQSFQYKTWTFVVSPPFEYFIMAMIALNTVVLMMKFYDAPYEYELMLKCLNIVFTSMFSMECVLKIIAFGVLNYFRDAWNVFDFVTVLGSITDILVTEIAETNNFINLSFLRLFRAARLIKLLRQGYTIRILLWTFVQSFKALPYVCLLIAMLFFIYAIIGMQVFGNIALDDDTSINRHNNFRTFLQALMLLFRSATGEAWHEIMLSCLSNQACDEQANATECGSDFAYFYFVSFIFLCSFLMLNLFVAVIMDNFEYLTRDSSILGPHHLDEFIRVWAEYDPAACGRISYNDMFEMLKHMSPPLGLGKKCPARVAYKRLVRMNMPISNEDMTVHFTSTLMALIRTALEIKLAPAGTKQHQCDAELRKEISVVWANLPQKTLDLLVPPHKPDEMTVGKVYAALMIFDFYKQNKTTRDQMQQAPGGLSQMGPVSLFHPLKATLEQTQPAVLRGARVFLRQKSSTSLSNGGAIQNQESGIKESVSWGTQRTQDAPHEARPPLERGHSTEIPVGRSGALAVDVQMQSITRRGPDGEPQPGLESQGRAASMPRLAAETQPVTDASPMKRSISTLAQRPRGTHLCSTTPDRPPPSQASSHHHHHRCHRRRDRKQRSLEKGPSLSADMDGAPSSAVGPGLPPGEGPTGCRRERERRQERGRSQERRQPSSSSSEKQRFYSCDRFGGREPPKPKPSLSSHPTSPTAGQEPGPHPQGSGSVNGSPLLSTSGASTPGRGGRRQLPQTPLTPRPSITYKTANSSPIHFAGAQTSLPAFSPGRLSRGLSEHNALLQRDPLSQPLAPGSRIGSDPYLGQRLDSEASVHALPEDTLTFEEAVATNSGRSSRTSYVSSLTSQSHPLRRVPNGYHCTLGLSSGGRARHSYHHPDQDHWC
Sequence (P54284 whole entry, further chain): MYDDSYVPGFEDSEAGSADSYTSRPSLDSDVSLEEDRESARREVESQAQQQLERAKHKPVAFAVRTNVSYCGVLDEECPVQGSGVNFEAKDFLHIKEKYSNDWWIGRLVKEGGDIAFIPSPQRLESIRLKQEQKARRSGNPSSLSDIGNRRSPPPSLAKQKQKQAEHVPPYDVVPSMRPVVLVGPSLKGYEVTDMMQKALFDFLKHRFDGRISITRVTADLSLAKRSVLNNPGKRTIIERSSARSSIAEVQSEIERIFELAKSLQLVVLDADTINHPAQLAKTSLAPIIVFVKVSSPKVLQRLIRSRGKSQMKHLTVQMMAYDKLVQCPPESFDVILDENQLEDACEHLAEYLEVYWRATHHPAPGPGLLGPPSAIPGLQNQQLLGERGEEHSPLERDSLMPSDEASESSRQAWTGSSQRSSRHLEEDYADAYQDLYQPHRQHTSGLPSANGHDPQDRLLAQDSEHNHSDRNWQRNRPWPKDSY
Sequence (P54289 25-1103, further chain): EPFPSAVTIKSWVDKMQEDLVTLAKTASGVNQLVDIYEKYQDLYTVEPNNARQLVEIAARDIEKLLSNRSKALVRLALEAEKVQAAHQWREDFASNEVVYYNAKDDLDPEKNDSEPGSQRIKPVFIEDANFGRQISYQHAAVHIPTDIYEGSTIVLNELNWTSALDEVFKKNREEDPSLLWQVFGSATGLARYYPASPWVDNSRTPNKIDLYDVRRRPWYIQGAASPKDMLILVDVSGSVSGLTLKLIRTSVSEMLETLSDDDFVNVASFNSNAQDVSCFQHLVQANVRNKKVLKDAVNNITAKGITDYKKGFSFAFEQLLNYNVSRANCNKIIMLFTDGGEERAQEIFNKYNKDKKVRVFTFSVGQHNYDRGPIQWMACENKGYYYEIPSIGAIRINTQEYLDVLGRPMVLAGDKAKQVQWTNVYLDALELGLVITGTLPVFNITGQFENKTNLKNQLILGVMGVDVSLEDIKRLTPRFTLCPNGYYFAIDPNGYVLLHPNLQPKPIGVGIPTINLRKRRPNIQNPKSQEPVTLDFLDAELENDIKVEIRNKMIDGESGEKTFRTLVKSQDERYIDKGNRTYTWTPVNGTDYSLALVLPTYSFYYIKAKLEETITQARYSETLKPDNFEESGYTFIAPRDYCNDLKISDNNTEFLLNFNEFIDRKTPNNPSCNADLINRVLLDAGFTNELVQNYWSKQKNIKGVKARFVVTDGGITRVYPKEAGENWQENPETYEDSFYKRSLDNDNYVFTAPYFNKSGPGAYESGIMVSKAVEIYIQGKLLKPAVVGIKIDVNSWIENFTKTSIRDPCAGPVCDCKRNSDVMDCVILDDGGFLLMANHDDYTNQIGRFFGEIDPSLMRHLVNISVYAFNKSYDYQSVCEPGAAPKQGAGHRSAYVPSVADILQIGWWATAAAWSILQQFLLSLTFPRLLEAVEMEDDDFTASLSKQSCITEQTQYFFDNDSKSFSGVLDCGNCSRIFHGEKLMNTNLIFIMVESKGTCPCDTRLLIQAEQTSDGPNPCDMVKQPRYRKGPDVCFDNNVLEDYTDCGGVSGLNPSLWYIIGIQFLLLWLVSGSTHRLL
Test: Fluorescent (FLIPR) assay for CaV2.2 channels using potassium depolarization to induce channel opening
Type: cell-based
Test Settings: 3 μM compound; 30 mM KCl assay buffer (inactivated channel state); HEK293 cells stably expressing human CaV2.2; read-out: Activity Category: %-Inhib (CaV2.2) @3 μM @30 mM KCl
Readout: inhibition at 3 µM

{"Compound": "Cc1c(-c2ccc(Cl)cn2)c(C(=O)N2CCN(C(=O)NC(C)(C)C)CC2)n(C(C)C)c1C(F)(F)F [Example 129]", "Target Entity": "Human CaV2.2 channels (Homo sapiens, UniProt Q00975)", "Readout": "inhibition at 3 µM", "Result Value": "75 to 95%"}

Give one value of inhibition at 3 µM per listed compound.
1. Cc1c(-c2ccc(Cl)cc2)c(C(=O)N(C)CCS(C)(=O)=O)n(C2CC2)c1C(F)(F)F [Example 041]
2. Cc1cnc(CN(C)C(=O)c2c(-c3ccc(Cl)cc3F)c(C)c(C(F)(F)F)n2C2CC2)cn1 [Example 024]
3. Cc1cnc(CN(C)C(=O)c2c(-c3ccc(Cl)cc3)c(C)c(C(F)(F)F)n2CC(C)C)cn1 [Example 059]

Reply text:
["75 to 95%", "> 95%", "> 95%"]

----------
Hi there, I'd appreciate the recorded inhibition at 3 µM for every entry that follows.
Target Entity: Human CaV2.2 channels (Homo sapiens)
Construct: expressed in transfected cells; host or cells: HEK293
Test: Fluorescent (FLIPR) assay for CaV2.2 channels using potassium depolarization to induce channel opening
Type: cell-based
Test Settings: 3 μM compound; 30 mM KCl assay buffer (inactivated channel state); HEK293 cells stably expressing human CaV2.2; read-out: Activity Category: %-Inhib (CaV2.2) @3 μM @30 mM KCl

Solved cases (5 shown):
{"Compound": "Cc1c(-c2ccc(Cl)cc2)c(C(=O)N(C)CC(C)(C)C)n(C2CC2)c1C(F)(F)F", "inhibition at 3 µM": "75 to 95%"}
{"Compound": "CN(CC(C)(C)O)C(=O)c1c(-c2ccc(Cl)cc2)cc(C(F)(F)F)n1C1CC1", "inhibition at 3 µM": "40 to 75%"}
{"Compound": "CN(CC(C)(C)CO)C(=O)c1c(-c2ccc(Cl)cc2)cc(C(F)(F)F)n1C1CC1", "inhibition at 3 µM": "75 to 95%"}
{"Compound": "Cc1c(-c2ccc(Cl)cn2)c(C(=O)N(C)CCS(C)(=O)=O)n(C(C)C)c1C(F)(F)F", "inhibition at 3 µM": "40 to 75%"}
{"Compound": "Cc1c(-c2ccc(Cl)cc2)c(C(=O)N(C)C(C)C)n(CC(C)C)c1C(F)(F)F", "inhibition at 3 µM": "75 to 95%"}

Give one value of inhibition at 3 µM per listed compound.
1. CN(CCS(C)(=O)=O)C(=O)c1c(-c2ccc(Cl)cc2)cc(C(F)(F)F)n1C1CC1
2. O=C1CN(C(=O)c2c(-c3ccc(F)cc3)cc(C(F)(F)F)n2CC2CCCO2)CCN1 (centres unmarked)
3. Cc1c(-c2ccc(Cl)cc2)c(C(=O)N2CCOCC2)n(CC2(O)CC2)c1C(F)(F)F

Reply text:
1. 40 to 75%
2. 40 to 75%
3. > 95%
